Tested on: NRK
TEST NAME: Induction of apoptosis in NRK cells assessed as chromatin condensation and fragmentation at 10 to 100 uM after 48 hrs by Hoechst 33342 staining-based UV-vis microscopic analysis
Assay type: cell-based
COND: rat
MEASURED PROPERTY: Activity

Q: Given the entry O=Cc1cn2c3c1ccc1c4ccccc4n(c13)CC(OCCCBr)C2 (centres undefined) , report its measured Activity.
Result: Non-toxic

Q: Given the entry O=Cc1cn2c3c1ccc1c4ccccc4n(c13)CC(OCCO)C2 (centres undefined) , report its measured Activity.
Result: Toxic

Q: Given the entry O=Cc1cn2c3c1ccc1c4ccccc4n(c13)CC(OCCCN1CCCCC1)C2 (centres undefined) , report its measured Activity.
Result: Non-toxic

Q: Given the entry N#CCOC1Cn2cc(C=O)c3ccc4c5ccccc5n(c4c32)C1 (centres undefined) , report its measured Activity.
Result: Toxic
